biological target: Dual specificity protein kinase CLK4 (Homo sapiens) (UniProt Q9HAZ1); experiment: qHTS Assay for Inhibitors of CDC-like Kinase 4 (Kinase-Glo Assay) (AID 1770); details: recombinant Clk4, Kinase-Glo ATP depletion luminescence; series mostly up to 66.7 µM; also: nearly all actives have a fitted effect of over 65% in size
Sequence (Q9HAZ1 whole entry, looked up): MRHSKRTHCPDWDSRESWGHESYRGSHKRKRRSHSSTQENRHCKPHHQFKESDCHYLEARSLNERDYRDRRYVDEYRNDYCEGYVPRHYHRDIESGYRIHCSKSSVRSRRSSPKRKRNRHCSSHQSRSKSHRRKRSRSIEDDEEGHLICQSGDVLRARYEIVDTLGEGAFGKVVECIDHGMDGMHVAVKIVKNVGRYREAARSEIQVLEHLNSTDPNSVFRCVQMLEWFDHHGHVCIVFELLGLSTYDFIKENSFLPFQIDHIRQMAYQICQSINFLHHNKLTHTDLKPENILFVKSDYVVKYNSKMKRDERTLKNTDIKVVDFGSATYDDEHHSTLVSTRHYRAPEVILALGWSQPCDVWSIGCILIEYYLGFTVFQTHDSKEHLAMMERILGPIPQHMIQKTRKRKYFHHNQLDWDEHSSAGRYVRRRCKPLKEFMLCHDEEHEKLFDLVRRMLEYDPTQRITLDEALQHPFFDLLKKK
Records with an inconclusive call do not appear. Calls of active or inactive are those of the source. Calls follow the shape of the dose curve; as a rule, active = well fitted inhibition curve with a large enough effect; inconclusive = small, poorly fitted or top-dose-only effect; inactive = flat fitted curve, though single readings scatter.
Possible outcomes: active, inactive

- MOLECULE_SMILES: "COc1ccc(-n2c(=O)c(-c3cccc(C#N)c3)nc3cnc(N4CCNCC4)nc32)cc1"
  ANSWER_LABEL: "inactive"
- MOLECULE_SMILES: "CCNc1ncc2nc(-c3cc(F)cc(F)c3)c(=O)n(C)c2n1"
  ANSWER_LABEL: "inactive"
- MOLECULE_SMILES: "COc1ccc(-n2c(=O)c(-c3cccs3)nc3cnc(N4CCOCC4)nc32)cc1"
  ANSWER_LABEL: "inactive"
- MOLECULE_SMILES: "Cc1cnc(CNc2cc(-c3cccc(NS(C)(=O)=O)c3)ncn2)cn1"
  ANSWER_LABEL: "active"
- MOLECULE_SMILES: "O=c1c(-c2ccc(F)cc2)nc2cnc(Nc3ccccc3)nc2n1C[C@H]1CCCO1"
  ANSWER_LABEL: "inactive"
- MOLECULE_SMILES: "CN1CCN(c2ccnc(-c3ccoc3)n2)CC1"
  ANSWER_LABEL: "inactive"
- MOLECULE_SMILES: "CN1CCN(c2ncc3nc(-c4cc(F)cc(F)c4)c(=O)n(C)c3n2)CC1"
  ANSWER_LABEL: "inactive"
- MOLECULE_SMILES: "CN1CCN(c2cc(-c3ccoc3)ncn2)CC1"
  ANSWER_LABEL: "inactive"
- MOLECULE_SMILES: "c1ccc(CNc2cc(-c3cccnc3)ncn2)cc1"
  ANSWER_LABEL: "active"
- MOLECULE_SMILES: "Cc1nc2cnc(N3CCNCC3)nc2n(CCc2ccccc2)c1=O"
  ANSWER_LABEL: "inactive"
- MOLECULE_SMILES: "O=c1c(-c2ccc(F)cc2)nc2cnc(N3CCNCC3)nc2n1Cc1ccc(F)cc1"
  ANSWER_LABEL: "inactive"

###

assay: qHTS Assay for Lipid Storage Modulators (AID 1519); conditions: Drosophila S3 cells, BODIPY lipid droplet/cell ratio, laser cytometry; at 57.5 µM (top of the series); cells loaded with oleic acid; also: % is scaled to controls: 0 for no effect and ±100 for the full control effect
Records with an inconclusive call do not appear.
activity change, negative = inhibition: recorded values

- MOLECULE_SMILES: "Cn1cccc1C(=O)N1CCC[C@@]2(CCN(c3ccccc3)C2)C1"
  activity change, negative = inhibition [%]: -1.47
- MOLECULE_SMILES: "O=c1c(-c2ccc(F)cc2)nc2cnc(Oc3ccccc3)nc2n1Cc1cccs1"
  activity change, negative = inhibition [%]: -20.3
- MOLECULE_SMILES: "COCCn1c(=O)cnc2cnc(N3CCN(C)CC3)nc21"
  activity change, negative = inhibition [%]: 0.388
- MOLECULE_SMILES: "COCCn1c(=O)cnc2cnc(Nc3ccccc3)nc21"
  activity change, negative = inhibition [%]: -9
- MOLECULE_SMILES: "COc1cccc(Nc2ncc3nc(C)c(=O)n(Cc4cccs4)c3n2)c1"
  activity change, negative = inhibition [%]: -16.2
- MOLECULE_SMILES: "COc1ccccc1-c1cncnc1NCCN1CCOCC1"
  activity change, negative = inhibition [%]: 0.65
- MOLECULE_SMILES: "CNc1cc(-c2ccccc2C(F)(F)F)ncn1"
  activity change, negative = inhibition [%]: 1.87
- MOLECULE_SMILES: "COc1ccccc1CN1CC[C@@]2(CCCN(C(=O)c3c(C)noc3C)C2)C1"
  activity change, negative = inhibition [%]: 6.24
- MOLECULE_SMILES: "O=c1c(-c2ccc(Cl)cc2)nc2cnc(N3CCOCC3)nc2n1C[C@H]1CCCO1"
  activity change, negative = inhibition [%]: -4.84
- MOLECULE_SMILES: "O=C(c1cccc(F)c1)N1CCC[C@@]2(CCN(c3ccncc3)C2)C1"
  activity change, negative = inhibition [%]: 6.94
- MOLECULE_SMILES: "O=S(=O)(c1ccccc1)N1CCC[C@@]2(CCN(c3ccncc3)C2)C1"
  activity change, negative = inhibition [%]: 0.287
